- target-of-assay: GABA-A receptor; anion channel (Bos taurus) (UniProt P10063+P08220+P20237+P08219+P10064+P22300)
- recorded-conditions: Brain membranes, at 0.5 µM
recorded-endpoint: Clonazepam

Some solved entries appear below for comparison.
1) COc1ccc(NNC(=O)C(=O)c2c[nH]c3ccccc23)cc1 :: 17%
2) O=C(NNc1ccccc1)C(=O)c1c[nH]c2ccccc12 :: 20%
3) Cc1cccc(NNC(=O)C(=O)c2c[nH]c3ccccc23)c1 :: 20%
4) O=C(NNc1ccc(Cl)cc1)C(=O)c1c[nH]c2ccccc12 :: 16%
5) Cc1ccc(NNC(=O)C(=O)c2c[nH]c3ccccc23)cc1 :: 9%

// switching to the query molecule
If you can, please state the reported Clonazepam value of CN(NC(=O)C(=O)c1c[nH]c2ccc([N+](=O)[O-])cc12)c1ccccc1 .
53%
